- Tested on: HT29 colon
- ASSAY COMMENT: NCI-60 one-dose screen, 48 h
- CONDITION CONTEXT: 10 µM unless noted
Compounds without any hit were thinned out: in the full panel of roughly 83,000, 20% have a hit. Activity calls are given as the source filed them. Rule for the calls: active = growth percent below 10; inactive = the rest.
Classes used: 1 = active, -1 = inactive

MOLECULE	ASSAYED SYSTEM	CLASSIFICATION
COC(=O)[C@]12CC[C@@H](C)[C@H](C)[C@@H]1C1=CC[C@@H]3[C@@]4(C)C(C=O)=C[C@@](C)(COC(C)=O)[C@@H]4[C@H](O)C[C@@]3(C)[C@]1(C)CC2	HT29 colon	1
Cc1ccc(C2SCC(=O)N2Cc2ccccc2)cc1 (centres undefined)	HT29 colon	-1
COC(=O)CCC1=C(C)C2=NC1=CC1=NC(=CC3=NC(=Cc4[nH]c(/c(=C(/C)O)c4C)=C2)C(C(C)=O)=C3C)C(C)=C1CCC(=O)OC	HT29 colon	-1
Cc1ccc2nc(NC(=O)CSc3nc(Nc4ccc([N+](=O)[O-])cc4)c(C#N)c(-c4ccccc4)n3)sc2c1	HT29 colon	-1
CN(C)CC1=NC2SC=C(c3ccccc3)C2C(=O)N1CC#N (centres undefined)	HT29 colon	-1
CS(=O)(=O)c1ccc(Nc2nc(N[C@H]3CCCC[C@H]3N)nc3cc[nH]c(=O)c23)cc1	HT29 colon	-1
NS(=O)(=O)c1cnccc1Oc1cccc2cccnc12	HT29 colon	-1
COc1ccc2c(c1)C(=O)/C(=C/c1ccc(OCC(=O)Nc3nccs3)cc1)O2	HT29 colon	1
CN1CCN(C(=O)c2c3c(n4ccccc24)C(=O)c2ncccc2C3=O)CC1	HT29 colon	-1
Cc1cc(Cl)nc(NCc2cc(Nc3ccnc4cc(Cl)ccc34)ccc2F)n1	HT29 colon	1
Cn1c2c(c3ccc(Cl)c(Cl)c31)C(C#N)C1(CCNCC1)NC2=O (centres undefined)	HT29 colon	1
O=Cc1ccc(O)c2ncccc12	HT29 colon	-1
O=C(NCCc1ccc(O)c(O)c1)C12CC3CC(CC(C3)C1)C2	HT29 colon	-1
CC(C)(C)n1cc(-c2ccnc(NCCCNS(=O)(=O)c3ccccc3)c2)c(-c2ccccc2)n1	HT29 colon	-1
Cc1ccc(-n2c(-c3ccccc3)c(-c3ccccc3)c3c(SCC(=O)n4[nH]c(N)cc4=O)ncnc32)cc1	HT29 colon	-1
COc1cc(C2CC(=O)Nc3c2c(C)nn3-c2nc3ccccc3[nH]2)c(OC)c2c1OCO2 (centres undefined)	HT29 colon	-1
N#CC1=C(c2ccc(Br)cc2)NC(SCC(=O)c2ccc(Br)cc2)NC1=O (centres undefined)	HT29 colon	-1
CN(C)c1ccc(-c2cc(-c3ccc(Nc4nc(Nc5ccc(Cl)cc5)nc(Nc5ccc(Cl)cc5)n4)cc3)no2)cc1	HT29 colon	-1
Cc1cc[c-]cc1.Fc1c[c-]c(-c2ccccn2)c(F)c1.[Pt+2].c1ccc(P(C[PH+](c2ccccc2)c2ccccc2)c2ccccc2)cc1	HT29 colon	-1
